Recorded measurements of melting point, one per entry
observable: melting point

1) CCOP(=O)(OCC)C(CNc1nccs1)c1cc(C)c(O)c(OC)c1 (stereo not shown) : 85 to 87 °C
2) CCOP(=O)(OCC)C(CNc1cnccn1)c1cc(OC)c(O)c(OC)c1 (stereo not shown) [Compound 42] : 147 to 148 °C
3) COc1cc(C(CNc2cccnc2)P(=O)(OC(C)C)OC(C)C)cc(OC)c1O (stereo not shown) [Compound 33] : 156 to 158 °C
4) CCOc1cc(C(CNc2cccnc2)P(=O)(OCC)OCC)cc(C)c1O (stereo not shown) [Compound 55] : 155 to 156 °C
5) CCOP(=O)(OCC)C(CNc1cccnc1)c1cc(OC)c(O)c(OC)c1 (stereo not shown) : 152 to 154 °C
6) CCOP(=O)(OCC)C(CNc1ncccn1)c1cc(C)c(O)c(OC)c1 (stereo not shown) [Compound 53] : 133 to 136 °C
7) COc1cc(C(CNc2cnccn2)P(=O)(OC(C)C)OC(C)C)cc(OC)c1O (stereo not shown) [Compound 43] : 169 to 171 °C
